Molecular target: T1, 4H2760-bN
T1 chain: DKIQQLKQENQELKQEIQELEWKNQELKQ
Test: two-hybrid library CCNG1;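 also: natural log of median RNA to DNA barcode read ratio; higher means stronger binding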
Decide by interaction score: equal to or exceeding 0.2 means fulfilled, less means not fulfilled.

>  <binder>
DKIQQLKQENQELKQEIQELEWKNQELKQ [4H2760-bN]

>  <cat>
not fulfilled

$$$$
>  <binder>
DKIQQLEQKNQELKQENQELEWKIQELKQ [4H2518-bN]

>  <cat>
fulfilled

$$$$
>  <binder>
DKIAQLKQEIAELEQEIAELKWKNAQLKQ [4H2576-bA]

>  <cat>
fulfilled

$$$$

Answer whether interaction score of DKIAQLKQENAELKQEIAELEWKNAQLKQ [4H2760-bA] is greater than or equal to 0.2.
not fulfilled

Now this one: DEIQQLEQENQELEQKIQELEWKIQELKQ [4H166-bN]
fulfilled

Now this one: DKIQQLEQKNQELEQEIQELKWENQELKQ [4H2444-bN]
not fulfilled

This collection of values is drawn from paper PMC10397247.
